meta.source: patent US12304917B1

# Test system: S. enterica ATCC14028
# Assay overview: MIC by broth microdilution
# Condition summary: Salmonella enterica, ATCC14028, 24 h, read-out: Minimum inhibitory concentration S.e.^g
# if measured MIC < 60 µg/mL: YES  # else: NO

Task: Take the compound C=C[C@]1(C)C[C@@H](OC(=O)CSc2nc3cc[n+](Cc4ccc(C#N)cc4)cc3s2)[C@]2(C)[C@H](C)CC[C@]3(CCC(=O)[C@H]32)[C@@H](C)[C@@H]1O [Compound I-8] and say whether its MIC is less than 60 µg/mL.
Output: YES

Task: Next entry: C=C[C@]1(C)C[C@@H](OC(=O)CSc2nc3cc[n+](Cc4ccc(C(F)(F)F)cc4)cc3s2)[C@]2(C)[C@H](C)CC[C@]3(CCC(=O)[C@H]32)[C@@H](C)[C@@H]1O [Compound I-2]
Output: YES

Task: Next entry: C=C[C@]1(C)C[C@@H](OC(=O)CSc2nc3cc[n+](Cc4cc(F)c(F)cc4F)cc3s2)[C@]2(C)[C@H](C)CC[C@]3(CCC(=O)[C@H]32)[C@@H](C)[C@@H]1O [Compound I-7]
Output: NO

Task: Next entry: C=C[C@]1(C)C[C@@H](OC(=O)CSc2nc3cc[n+](Cc4ccc(C(C)(C)C)cc4)cc3s2)[C@]2(C)[C@H](C)CC[C@]3(CCC(=O)[C@H]32)[C@@H](C)[C@@H]1O [Compound I-11]
Output: YES

Task: Next entry: C=C[C@]1(C)C[C@@H](OC(=O)CSc2nc3cc[n+](Cc4ccc(Cl)cc4)cc3s2)[C@]2(C)[C@H](C)CC[C@]3(CCC(=O)[C@H]32)[C@@H](C)[C@@H]1O [Compound I-5]
Output: YES

Task: Next entry: C=C[C@]1(C)C[C@@H](OC(=O)CSc2nc3cc[n+](Cc4cc(C)cc(C)c4)cc3s2)[C@]2(C)[C@H](C)CC[C@]3(CCC(=O)[C@H]32)[C@@H](C)[C@@H]1O [Compound I-12]
Output: NO

Task: Next entry: C=C[C@]1(C)C[C@@H](OC(=O)CSc2nc3cc[n+](Cc4cc(OC)cc(OC)c4)cc3s2)[C@]2(C)[C@H](C)CC[C@]3(CCC(=O)[C@H]32)[C@@H](C)[C@@H]1O [Compound I-14]
Output: NO
